Where these numbers come from: ChEMBL document CHEMBL1152535

# systemTested: Hypoxanthine-guanine phosphoribosyltransferase (Homo sapiens)
# Sequence (P00492 whole entry): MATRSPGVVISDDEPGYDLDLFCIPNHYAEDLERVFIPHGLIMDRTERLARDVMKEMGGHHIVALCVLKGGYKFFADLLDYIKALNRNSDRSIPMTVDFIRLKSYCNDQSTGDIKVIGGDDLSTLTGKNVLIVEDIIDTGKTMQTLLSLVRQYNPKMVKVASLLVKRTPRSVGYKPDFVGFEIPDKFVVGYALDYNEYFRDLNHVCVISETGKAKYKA
# assayNotes: Inhibition of human recombinant HGPRT expressed in Escherichia coli by spectrophotometric assay
The molecules listed here are annotated with their Ki.
Report the value in nM with no unit label.

Use the examples below as a reference point.
CC(CP(=O)(O)O)OCCn1cnc2c(=O)[nH]cnc21 (centres undefined) | 2000
CCC(CP(=O)(O)O)OCCn1cnc2c(=O)[nH]cnc21 (centres undefined) | 10000
CC(CP(=O)(O)O)OCCn1cnc2c(=O)[nH]c(N)nc21 (centres undefined) | 100

**Query** // lookup Ki for CCC(CP(=O)(O)O)OCCn1cnc2c(=O)[nH]c(N)nc21 (centres undefined)
**Result** 300

====

# assayNotes: Selectivity ratio of Ki for human recombinant HGPRT to Ki for Plasmodium falciparum recombinant HGXPRT
propertyMeasured: Ratio Ki
I'd appreciate a reply containing only the number, no unit.

**Query** Requested field: Ratio Ki. Item: CC(CP(=O)(O)O)OCCn1cnc2c(=O)[nH]c(N)nc21 (centres undefined)
**Result** 0.1

====

# assayNotes: Selectivity ratio of Ki for human recombinant HGPRT to Ki for Plasmodium falciparum recombinant HGXPRT
The compounds listed here are annotated with their Ratio Ki.
Respond using a number only.

CC(CP(=O)(O)O)OCCn1cnc2c(=O)[nH]cnc21 (stereo not drawn) | 0.2

**Query** Requested field: Ratio Ki. Item: CCC(CP(=O)(O)O)OCCn1cnc2c(=O)[nH]c(N)nc21 (stereo not drawn)
**Result** 0.06

**Query** Would you mind doing CCC(CP(=O)(O)O)OCCn1cnc2c(=O)[nH]cnc21 (stereo not drawn) as well?
**Result** 0.15
